Hi there, I'd appreciate the recorded viability, T/C for every entry that follows.
- System: 855422-203-R-J1-PDC complex spheroid viability;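 further: spheroids exposed to compounds for seven days before readout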
- assay.info: Anticancer human tumor 855422-203-R-J1-PDC patient-derived bladder carcinoma cell line growth inhibition [POLQ]
- experimental.setup: second compound 0.316 µM; first compound 0.316 µM; stronger effect = lower value
Give bare numbers, in %.

Look over these answered cases.
compound	reported
O=C(Nc1ccc(O)c(NS(=O)(=O)c2ccc(F)cc2)c1)c1ccc(-c2ccccc2)cc1 + Nc1ccc(C#CCN(C(=O)Cc2ncc(C(F)(F)F)cc2C(F)(F)F)c2ccc(F)cc2)nn1	102
CCc1cc2c(N3CCc4c(cc(Cn5ccnc5)cc4-c4cn(C)nc4C(F)(F)F)C3=O)ccnc2c(OC)n1 + Nc1ccc(C#CCN(C(=O)Cc2ncc(C(F)(F)F)cc2C(F)(F)F)c2ccc(F)cc2)nn1	133
CCCS(=O)(=O)Nc1ccc(F)c(C(=O)c2c[nH]c3ncc(-c4ccc(Cl)cc4)cc23)c1F + COC1C(OC(N)=O)C(O)C(Oc2ccc3c(O)c(NC(=O)c4ccc(O)c(CC=C(C)C)c4)c(=O)oc3c2C)OC1(C)C	114

Please give viability, T/C for each item listed below.
1. C=CC(=O)N1CCN(c2nc(=O)n(-c3c(C)ccnc3C(C)C)c3nc(-c4c(O)cccc4F)c(F)cc23)C(C)C1 (stereo not given) + COC1C(OC(N)=O)C(O)C(Oc2ccc3c(O)c(NC(=O)c4ccc(O)c(CC=C(C)C)c4)c(=O)oc3c2C)OC1(C)C
2. C=CCn1c(=O)c2cnc(Nc3ccc(N4CCN(C)CC4)cc3)nc2n1-c1cccc(C(C)(C)O)n1 + COC1C(OC(N)=O)C(O)C(Oc2ccc3c(O)c(NC(=O)c4ccc(O)c(CC=C(C)C)c4)c(=O)oc3c2C)OC1(C)C
3. O=C(c1cc(Cc2n[nH]c(=O)c3ccccc23)ccc1F)N1CCN(C(=O)C2CC2)CC1 + Nc1ccc(C#CCN(C(=O)Cc2ncc(C(F)(F)F)cc2C(F)(F)F)c2ccc(F)cc2)nn1
4. O=c1[nH]cc(F)c(=O)[nH]1 + COC1C(OC(N)=O)C(O)C(Oc2ccc3c(O)c(NC(=O)c4ccc(O)c(CC=C(C)C)c4)c(=O)oc3c2C)OC1(C)C
5. COc1cc(C2c3cc4c(cc3C(OC3OC5COC(C)OC5C(O)C3O)C3COC(=O)C23)OCO4)cc(OC)c1O (stereo not given) + COC1C(OC(N)=O)C(O)C(Oc2ccc3c(O)c(NC(=O)c4ccc(O)c(CC=C(C)C)c4)c(=O)oc3c2C)OC1(C)C
6. C=CC(=O)N1CCN(c2nc(=O)n(-c3c(C)ccnc3C(C)C)c3nc(-c4c(O)cccc4F)c(F)cc23)C(C)C1 (stereo not given) + Nc1ccc(C#CCN(C(=O)Cc2ncc(C(F)(F)F)cc2C(F)(F)F)c2ccc(F)cc2)nn1

111
109
96.9
53.5
29.4
121

// returns viability, T/C for CCCS(=O)(=O)Nc1ccc(F)c(C(=O)c2c[nH]c3ncc(-c4ccc(Cl)cc4)cc23)c1F + Nc1ccc(C#CCN(C(=O)Cc2ncc(C(F)(F)F)cc2C(F)(F)F)c2ccc(F)cc2)nn1 with 855422-203-R-J1-PDC complex spheroid viability; value = 93.1
